Counter-ions that a name gives are not always drawn.
Parameter IC50, tested on RET kinase Wild Type (Homo sapiens, UniProt P07949), listed per item.
Sequence (P07949 29-1114): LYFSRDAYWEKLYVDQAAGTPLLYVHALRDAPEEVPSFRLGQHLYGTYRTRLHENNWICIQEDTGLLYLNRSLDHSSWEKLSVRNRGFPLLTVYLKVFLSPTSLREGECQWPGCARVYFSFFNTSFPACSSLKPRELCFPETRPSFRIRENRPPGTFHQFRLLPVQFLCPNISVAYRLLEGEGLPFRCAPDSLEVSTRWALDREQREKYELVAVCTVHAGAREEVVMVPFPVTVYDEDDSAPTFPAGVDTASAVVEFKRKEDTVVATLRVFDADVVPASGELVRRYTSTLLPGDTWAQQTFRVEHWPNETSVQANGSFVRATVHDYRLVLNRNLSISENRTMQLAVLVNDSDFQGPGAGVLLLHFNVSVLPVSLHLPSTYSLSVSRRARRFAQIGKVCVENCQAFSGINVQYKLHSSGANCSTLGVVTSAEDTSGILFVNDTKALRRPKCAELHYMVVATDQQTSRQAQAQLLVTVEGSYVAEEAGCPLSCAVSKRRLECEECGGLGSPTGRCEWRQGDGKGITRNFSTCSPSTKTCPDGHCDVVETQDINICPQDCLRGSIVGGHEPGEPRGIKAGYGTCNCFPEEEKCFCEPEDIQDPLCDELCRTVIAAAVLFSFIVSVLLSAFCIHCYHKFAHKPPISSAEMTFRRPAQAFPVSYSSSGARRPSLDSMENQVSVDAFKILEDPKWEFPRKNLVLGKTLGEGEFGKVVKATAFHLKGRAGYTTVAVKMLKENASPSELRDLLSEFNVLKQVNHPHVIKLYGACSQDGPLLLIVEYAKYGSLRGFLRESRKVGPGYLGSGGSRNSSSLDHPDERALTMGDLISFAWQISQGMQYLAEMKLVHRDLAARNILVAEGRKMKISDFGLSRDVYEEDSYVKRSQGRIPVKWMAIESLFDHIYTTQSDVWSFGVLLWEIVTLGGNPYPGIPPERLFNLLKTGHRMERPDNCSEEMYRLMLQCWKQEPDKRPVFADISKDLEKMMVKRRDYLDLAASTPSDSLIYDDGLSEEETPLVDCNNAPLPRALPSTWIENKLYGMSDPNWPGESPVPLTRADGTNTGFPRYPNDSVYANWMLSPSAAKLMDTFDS
metric name: IC50 (nM)

Worked examples, 8 compounds total:
- compound: "CC(C)n1nc(-c2noc(C3CC3)c2-c2cccnc2)c2c(N)ncnc21"
  unit spec: "nM"
  assay value: 7.1
- compound: "CC(C)n1nc(-c2noc(C3CC3)c2C2CCOCC2)c2c(N)ncnc21"
  unit spec: "nM"
  assay value: 0.7
- compound: "CC(C)n1nc(-c2noc([C@@H](C)O)c2-c2ccccn2)c2c(N)ncnc21"
  unit spec: "nM"
  assay value: 1.1
- compound: "CC(C)n1nc(-c2nccn2C)c2c(N)ncnc21"
  unit spec: "nM"
  assay value: 65.9
- compound: "CC(C)n1nc(-n2cc(C3CC3)cn2)c2c(N)ncnc21"
  unit spec: "nM"
  assay value: 37.3
- compound: "CC(C)n1nc(-c2noc(C3CC3)c2C2=CCC(=O)CC2)c2c(N)ncnc21"
  unit spec: "nM"
  assay value: 2.7
- compound: "CC(C)n1nc(-c2noc(C3CC3)c2-c2ncccn2)c2c(N)ncnc21"
  unit spec: "nM"
  assay value: 1.5
- compound: "C=Cc1cc(-c2nn(C(C)C)c3ncnc(N)c23)[nH]n1 [Example 30, hydrochloride]"
  unit spec: "nM"
  assay value: 65.9

P = CC(=O)n1nc(-c2nn(C(C)C)c3ncnc(N)c23)cc1C
Q = CC(C)n1nc(-c2noc(C3CC3)c2C2=CCC(O)CC2)c2c(N)ncnc21 (stereo not drawn)
R = C=Cc1cc(-c2nn(C(C)C)c3ncnc(N)c23)n(C2CCCCO2)n1 (stereo not drawn)
S = CC(C)n1nc(-c2cc(C(F)(F)F)nn2C2CCCCO2)c2c(N)ncnc21 (stereo not drawn)
T = CC(C)n1nc(-c2noc(C3CC3)c2C2=CCCCO2)c2c(N)ncnc21
Number of compounds to sort: 5. Sort criterion: IC50, ascending. Put the labels in the requested order and write them down.
T, Q, R, S, P
(T: 0.3 nM, Q: 1.2 nM, R: 2.3 nM, S: 8.4 nM, P: 44.7 nM)

P = CC(C)n1nc(-c2noc(C3CC3)c2Br)c2c(N)ncnc21
Q = CC(C)n1nc(-c2cc(-c3ccccc3)nn2C2CCCCO2)c2c(N)ncnc21 (stereo not drawn)
# returns the entry with the larger IC50; inputs P and Q # respond with the chosen item's label
Q
(Q: 8.7 nM, P: 2.1 nM)

A = CC(C)n1nc(-c2cnn(C3CC3)c2)c2c(N)ncnc21
B = CC(C)c1cc(-c2nn(C(C)C)c3ncnc(N)c23)n(C2CCCCO2)n1 (stereo not drawn)
C = CC(C)n1nc(-c2cc(C(F)(F)F)[nH]n2)c2c(N)ncnc21 [Example 31, dihydrochloride]
Give the ascending ranking of the items by reported IC50. I'd appreciate it if you listed the labels in the requested order.
B, A, C
(B: 21.1 nM, A: 61.7 nM, C: 156 nM)

---

# study target: RET kinase G810S (Homo sapiens, UniProt P07949, G810S)
# Sequence (P07949 29-1114 G810S): as the sequence (P07949 29-1114) above, with G782S counted along it
# experimental protocol: RET Enzyme Assay (HTRF KinEASE-TK), G810S
pIC50: −log10 of the molar value.
metric name: pIC50

- compound: "CC(C)n1nc(-c2noc(C3CC3)c2C2=CCC(O)CC2)c2c(N)ncnc21 (stereo not shown)"
  pIC50: 8.31

A = CC(C)n1nc(-c2noc([C@@H](C)O)c2-c2ccccn2)c2c(N)ncnc21
B = CC(C)n1nc(-c2noc(C3CC3)c2-c2ccncc2)c2c(N)ncnc21
C = CC(C)n1nc(-c2noc(C3CC3)c2C2=CCC(=O)CC2)c2c(N)ncnc21
Sort these compounds on pIC50 so the largest reading comes first. Provide the labels, sequenced as the question asks.
A, C, B
(A: 8.37, C: 7.93, B: 7.69)

---

# study target: RET kinase G810R (Homo sapiens, UniProt P07949, G810R)
# Sequence (P07949 29-1114 G810R): as the sequence (P07949 29-1114) above, with G782R counted along it
# experimental protocol: RET Enzyme Assay (HTRF KinEASE-TK), G810R
pIC50: −log10 of the molar value.
metric name: pIC50

Past entries and their recorded results:
- compound: "CC(C)n1nc(-c2noc(C3CC3)c2C2=CCCCO2)c2c(N)ncnc21 [Example 9]"
  study target: "RET kinase G810R (Homo sapiens, UniProt P07949, G810R)"
  pIC50: 8.85
- compound: "CC(C)n1nc(-c2cc(C3CC3)nn2C2CCCCO2)c2c(N)ncnc21 (centres unmarked) [Example 19]"
  study target: "RET kinase G810R (Homo sapiens, UniProt P07949, G810R)"
  pIC50: 7.54
- compound: "CC(C)n1nc(-c2noc(C3CC3)c2-c2ccncc2)c2c(N)ncnc21 [Example 8]"
  study target: "RET kinase G810R (Homo sapiens, UniProt P07949, G810R)"
  pIC50: 8.41
- compound: "CC(C)n1nc(-c2cc(C(F)(F)F)nn2C2CCCCO2)c2c(N)ncnc21 (centres unmarked) [Example 25]"
  study target: "RET kinase G810R (Homo sapiens, UniProt P07949, G810R)"
  pIC50: 7.31

A = C=Cc1cc(-c2nn(C(C)C)c3ncnc(N)c23)n(C2CCCCO2)n1 (centres unmarked) [Example 22]
B = CC(C)n1nc(-c2cc(C3CC3)nn2C2CCCCC2)c2c(N)ncnc21 [Example 26]
C = CC(C)n1nc(-c2noc(C3CC3)c2Br)c2c(N)ncnc21 [Example 1]
D = CC(C)n1nc(-c2noc(C3CC3)c2C2=CCC(=O)CC2)c2c(N)ncnc21 [Example 5]
Reorder: pIC50, max to min. List each label, following the requested order.
C, D, A, B
(C: 8.42, D: 8.15, A: 7.78, B: 7.50)

---

# study target: HEK-293 cells expressing a Kif5b-RET fusion protein (Homo sapiens)
# Construct: the other entry of the earlier key: KIF5B (P33176, Kinesin-1 heavy chain)
# experimental protocol: RET Cell Assay (phospho-RET Tyr1062)
# assay context: 1 hour with compound, phospho-RET(Tyr1062) normalized to GAPDH, read-out: KIF5B-RET pTYR1062 Cell IC50
# Protocol: The cellular potency of compounds inhibiting RET kinase were determined in HEK-293 cells expressing a Kif5b-RET fusion protein. […] The plates were washed with PBS-0.05% Tween20, 100 μL PBS is added to each well, and the plates were read on a LI-COR Aerius fluorescent plate reader. […] 100 POC (percent of control) was determined using no test compounds and 0 POC was determined using 1 μM of a control inhibitor. […]
pIC50: −log10 of the molar value.
metric name: pIC50

- molecule: "CC(C)n1nc(-c2ccnn2C2CCCCO2)c2c(N)ncnc21 (stereo not shown)"
  assay value: 6.46
- molecule: "CC(C)n1nc(-c2noc(C3CC3)c2C2CCOCC2)c2c(N)ncnc21"
  assay value: 7.17

P = C=Cc1cc(-c2nn(C(C)C)c3ncnc(N)c23)n(C2CCCCO2)n1 (stereo not shown)
Q = CC(C)n1nc(-c2noc(C3CC3)c2C2=COCCC2)c2c(N)ncnc21
R = CC(C)n1nc(-c2noc(C3CC3)c2C2=CCC(=O)CC2)c2c(N)ncnc21
S = Cc1cc(-c2nn(C(C)C)c3ncnc(N)c23)n(C2CCCCO2)n1 (stereo not shown)
Order each entry by recorded pIC50, climbing from the minimum. Dear reader, please state the labels in the requested order.
Q, R, S, P

I = CC(C)n1nc(-c2noc(C3CC3)c2C2=CCCCO2)c2c(N)ncnc21
II = CC(C)n1nc(-c2noc(C3CC3)c2-c2ccn(C)n2)c2c(N)ncnc21
I'm curious, which of these has a smaller pIC50 number: I or II ? When you have decided, please share the label of that item.
II
(II: 7.12, I: 7.62)

a = CC(C)n1nc(-c2noc(C3CC3)c2C2CCCCO2)c2c(N)ncnc21 (stereo not shown)
b = CC(C)n1nc(-c2noc(C3CC3)c2-c2ncccn2)c2c(N)ncnc21
Sort a and b by pIC50 descending and give the first. Write down the label attached to your selection.
a
(a: 7.55, b: 7.07)

---

# study target: RET kinase V804M (Homo sapiens, UniProt P07949, V804M)
# Sequence (P07949 29-1114 V804M): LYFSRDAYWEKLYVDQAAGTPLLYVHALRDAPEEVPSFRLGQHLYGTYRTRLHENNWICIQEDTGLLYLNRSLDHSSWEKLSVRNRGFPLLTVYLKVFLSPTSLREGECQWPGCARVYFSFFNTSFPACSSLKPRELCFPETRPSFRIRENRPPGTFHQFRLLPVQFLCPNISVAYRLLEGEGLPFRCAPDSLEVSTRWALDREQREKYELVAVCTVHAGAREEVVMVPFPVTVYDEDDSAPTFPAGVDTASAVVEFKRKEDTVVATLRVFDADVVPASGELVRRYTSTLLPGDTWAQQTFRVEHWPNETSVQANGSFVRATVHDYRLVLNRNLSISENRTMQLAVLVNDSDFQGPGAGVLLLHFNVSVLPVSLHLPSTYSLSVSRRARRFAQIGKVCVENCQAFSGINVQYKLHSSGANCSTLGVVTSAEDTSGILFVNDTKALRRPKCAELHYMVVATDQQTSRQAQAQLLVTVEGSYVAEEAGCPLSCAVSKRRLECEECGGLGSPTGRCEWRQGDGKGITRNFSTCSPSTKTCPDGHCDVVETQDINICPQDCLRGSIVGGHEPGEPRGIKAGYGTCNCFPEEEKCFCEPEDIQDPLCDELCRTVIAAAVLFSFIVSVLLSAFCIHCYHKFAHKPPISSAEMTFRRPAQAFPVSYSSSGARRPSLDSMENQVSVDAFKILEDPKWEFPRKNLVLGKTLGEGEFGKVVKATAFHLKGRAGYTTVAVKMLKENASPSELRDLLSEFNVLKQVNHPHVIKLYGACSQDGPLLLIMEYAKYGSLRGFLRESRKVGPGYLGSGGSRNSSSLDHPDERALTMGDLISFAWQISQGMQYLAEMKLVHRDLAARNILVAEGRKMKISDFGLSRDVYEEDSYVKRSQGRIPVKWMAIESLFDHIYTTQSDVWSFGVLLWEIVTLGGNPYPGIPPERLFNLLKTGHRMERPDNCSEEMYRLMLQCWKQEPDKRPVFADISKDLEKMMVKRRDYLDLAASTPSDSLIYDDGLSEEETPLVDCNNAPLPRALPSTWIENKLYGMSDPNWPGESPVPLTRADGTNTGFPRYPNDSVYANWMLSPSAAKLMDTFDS
# experimental protocol: RET Enzyme Assay (HTRF KinEASE-TK), V804M
# Type: biochemical
pIC50: −log10 of the molar value.
metric name: pIC50

Examples with their reported pIC50 follow.
- compound: "Cc1cnn(C2CCCCO2)c1-c1nn(C(C)C)c2ncnc(N)c12 (centres unmarked)"
  study target: "RET kinase V804M (Homo sapiens, UniProt P07949, V804M)"
  metric name: "pIC50"
  assay value: 6.56
- compound: "C=Cc1cc(-c2nn(C(C)C)c3ncnc(N)c23)n(C2CCCCO2)n1 (centres unmarked)"
  study target: "RET kinase V804M (Homo sapiens, UniProt P07949, V804M)"
  metric name: "pIC50"
  assay value: 6.51
- compound: "CC(C)n1nc(-c2noc(C3CC3)c2C2=CCC(O)CC2)c2c(N)ncnc21 (centres unmarked)"
  study target: "RET kinase V804M (Homo sapiens, UniProt P07949, V804M)"
  metric name: "pIC50"
  assay value: 8.15

I = CC(C)n1nc(-c2noc(C3CC3)c2Br)c2c(N)ncnc21
II = CC(C)n1nc(-c2noc(C3CC3)c2C2=COCCC2)c2c(N)ncnc21
III = CC(C)n1nc(-c2cc(C3CC3)nn2C2CCCCO2)c2c(N)ncnc21 (centres unmarked)
IV = Cc1cc(-c2nn(C(C)C)c3ncnc(N)c23)n(C2CCCCO2)n1 (centres unmarked)
V = CC(C)n1nc(-c2noc(C3CC3)c2-c2cccnc2)c2c(N)ncnc21
Rank items: key pIC50, increasing. Labels, requested order.
III, IV, V, II, I

These data points were gathered from patent US11524963B2.
